# melting point per record follows
Please state the figure in °C; there is no need to write the unit.

// field: melting point; key: CN(C)B(F)N(C)C ; value = -44.3

// field: melting point; key: Nc1ccccc1 ; value = -6

Lab note: measured melting point of CCC(C)(C)N was -105

Sure, the documented melting point for Nc1ccccc1C(F)(F)F is 35.5

Record summary for CCC1CCC(=O)O1 (configuration not stated) : reported melting point = -18

The molecule listed as Cc1cccc(O)c1C(=O)O has a reported melting point of 173

Sure, the documented melting point for COC1CCCCC1 is -74.4

molecule CCCCCC(=O)OCCC , melting point observed: -68.7

molecule COc1ccc(N)c(OC)c1 , melting point observed: 33.5

The value of melting point measured for the molecule Cc1ccc(N)cc1Br turned out to be 26

GET /value?item= CC(C)COC(=O)C(C)C &field=melting point returns -80.7

---

Label criterion met when boiling point < 100 °C; otherwise criterion not met.

[[record]]
compound = "CCCC(C)C(C)(C)C (stereo not given)"
class_label = "criterion not met"

[[record]]
compound = "CCCC(Br)CC (stereo not given)"
class_label = "criterion not met"


Q: Item N#Cc1cc(F)c(F)c(F)c1F : boiling point beneath 100 °C, strictly?
Ans: criterion not met

Q: Dear reviewer, please state whether C1CCC2CC2C1 (stereo not given) has boiling point strictly beneath 100 °C.
Ans: criterion not met

Q: Dear reviewer, please state whether CCC1CO1 (stereo not given) has boiling point strictly beneath 100 °C.
Ans: criterion met

Q: hey, is boiling point for [C-]#[N+]CCCC lower than 100 °C or not?
Ans: criterion not met

Q: Report whether reported boiling point is lower than 100 °C (strictly) for O=[N+]([O-])c1ccccc1I
Ans: criterion not met

Q: Is it true that boiling point reported for FC(F)CBr is less than 100 °C?
Ans: criterion met

Q: Does this compound meet the criterion boiling point < 100 °C? CC(C)CCCC(C)(C)O
Ans: criterion not met

Q: Determine whether this compound shows boiling point lower than 100 °C (ties excluded): Oc1ccccc1O
Ans: criterion not met

---

Label No if log10 vapour pressure (mmHg) falls below -2; label Yes in every other case.

[[record]]
compound = "Clc1nc(Cl)c(Cl)c(Cl)c1Cl"
class_label = "Yes"

[[record]]
compound = "CCCCOC(=O)c1ccccc1C(=O)OC1CCCCC1"
class_label = "No"

[[record]]
compound = "CCCCCSSCCCCC"
class_label = "No"

[[record]]
compound = "Cn1cnc2ncnc-2c1N"
class_label = "No"

[[record]]
compound = "O=[N+]([O-])c1cccc2ccccc12"
class_label = "No"


Q: Item FC(F)(Cl)Cl with log10 vapour pressure (mmHg) of -2 or above?
Ans: Yes

Q: hey, is log10 vapour pressure (mmHg) for this one >= -2? CCCCCCCCCCC(=O)O
Ans: No

Q: Decide: log10 vapour pressure (mmHg) of FCOC(F)(F)C(F)F >= -2?
Ans: Yes

---

Entries are grouped by boiling point into these classes: class 0 (below 100 °C), class 1 (100 °C to below 200 °C), class 2 (200 °C or more)

Previously resolved entries follow.
[[record]]
compound = "Cc1ccc([N+](=O)[O-])cc1C"
class_label = "class 2"

[[record]]
compound = "ClCC1CO1 (configuration not stated)"
class_label = "class 1"

[[record]]
compound = "Cc1cccc2cc[nH]c12"
class_label = "class 2"

[[record]]
compound = "C=CCC(=O)O"
class_label = "class 1"

[[record]]
compound = "Fc1cc(F)c(F)cc1F"
class_label = "class 0"


Q: Hey, which category is COc1ccccc1C#N in, do you know?
Ans: class 2

Q: Which class holds O=C(O)c1cccc(C(F)(F)F)c1 ?
Ans: class 2

Q: Please indicate the class for CN(C)CCCCCCN(C)C based on its boiling point.
Ans: class 2

Q: Dear colleague, I would appreciate it if you could identify the bin for FC(F)(F)c1ccc(C(F)(F)F)cc1 and reply at your convenience.
Ans: class 1

Q: Class for CCCc1ccccn1 ?
Ans: class 1

Q: Please indicate the class for CC(=O)c1cc(C)c(C)cc1C based on its boiling point.
Ans: class 2

Q: // bin(item) where item = CCCC(C)(O)C(C)(C)C (configuration not stated)
Ans: class 1

Q: Assign a category based on measured boiling point for CC(C)N=C=NC(C)C and give only the class name.
Ans: class 1

Q: Place this compound in its band: CCCCCCS
Ans: class 1

Q: Lab note: sort CON into the matching boiling point band.
Ans: class 0

Q: Category of CC(=O)OCC=Cc1ccccc1 , please.
Ans: class 2

Q: Category lookup for the compound C=C(C)C(=O)O
Ans: class 1

Q: Record FC(F)(F)C(F)(F)C(F)(F)C(F)(F)C(F)(F)C(F)(F)C(F)(F)I — which class?
Ans: class 1

Q: Looking at C=C(CC)C(C)C , which class would you pick?
Ans: class 0

Data origin: the OPERA property sets (Mansouri et al. 2018)
